The measurements presented in this section are drawn from ChEMBL document CHEMBL6177980.

experiment: AUC (0 to t) in fasted Sprague-Dawley rat at 15.5 mg/kg, po by LC-MS/MS analysis; format: ADME, organism-based; settings: in vivo
measured.property: AUC(0-t) (ng·h/mL)
Your answer is read as ng·h/mL, so omit the unit and give the number.

Which AUC(0-t) reading was recorded for the compound `CCOC(=O)n1c(=O)ccn([C@@H]2O[C@](F)(COC(=O)C(C)C)[C@@H](O)[C@H]2O)c1=O` ?
4650

----------
test: AUC (0 to t) in fasted Sprague-Dawley rat at 20 mg/kg, po by LC-MS/MS analysis; assay type: ADME, organism-based; conditions: in vivo
measured.property: AUC(0-t) (ng·h/mL)
Give just the number in ng·h/mL; leave the unit off.

Entry `CC(=O)OC[C@@]1(F)O[C@@H](n2ccc(=O)n(COC(=O)c3cccnc3)c2=O)[C@H](OC(C)=O)[C@@H]1OC(C)=O` : reported AUC(0-t) = ?
15700
